tested on: TLK1; conditions: Compound Concentration (nM):1000;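 further: KINOMEscan scanMAX binding as percent activity remaining versus control; lower means stronger binding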

- Compound: "NS(=O)(=O)c1ccc(N/N=C2\\C(=O)Nc3ccc(-c4cnco4)cc32)cc1"
  Percent Control [%]: 96
- Compound: "COc1ccc(COc2ccc(Cc3cnc(N)nc3N)cc2OC)cc1 [GW632580X]"
  Percent Control [%]: 92
- Compound: "CC1=C(C(=O)Nc2ccc3[nH]ncc3c2)C(c2ccc(Cl)c(Cl)c2)CC(=O)N1 (centres unmarked) [GSK299115A]"
  Percent Control [%]: 84
- Compound: "CN(C)c1cc2c(Nc3ccc4c(cnn4Cc4ccccc4)c3)ncnc2cn1 [GW282974X]"
  Percent Control [%]: 78
- Compound: "COc1cccc(-c2c[nH]c3c(N/N=C/c4ccncc4)ncnc23)c1 [GW814408X]"
  Percent Control [%]: 84
- Compound: "CN(C)CCNC(=O)Nc1ccc(N(C)c2ccnc(Nc3ccc(CS(C)(=O)=O)cc3)n2)cc1.Cl [GW830900A]"
  Percent Control [%]: 89
- Compound: "COc1ccc2c(-c3ccnc(Nc4cccc(OC(F)(F)F)c4)n3)cnn2n1 [GW810372X]"
  Percent Control [%]: 100
- Compound: "Cl.O=C(Nc1ccc(Oc2ccc3[nH]c(NC(=O)c4ccccc4)nc3c2)cc1)Nc1cc(C(F)(F)F)ccc1F [GW709042A]"
  Percent Control [%]: 100

###

Parameter: Percent Control. Scope: all listed entries.
test system: CSNK1A1; conditions: Compound Concentration (nM):1000
Parameter: Percent Control

- Compound: "Cl.O=C(Nc1ccc(Oc2ccc3[nH]c(NC(=O)c4ccccc4)nc3c2)cc1)Nc1cc(C(F)(F)F)ccc1F [GW709042A]"
  Assayed system: "CSNK1A1"
  Result: "100%"
- Compound: "NS(=O)(=O)c1ccc(N/N=C2\\C(=O)Nc3ccc(C(=O)NCc4ccncc4)cc32)cc1 [GW300657X]"
  Assayed system: "CSNK1A1"
  Result: "83%"
- Compound: "CCc1ccc(Oc2nccc(-c3c(-c4ccc(F)cc4)ncn3C3CCNCC3)n2)cc1"
  Assayed system: "CSNK1A1"
  Result: "5.1%"
- Compound: "C[C@@H](Oc1cc(-n2cnc3ccc(OC4CCN(C)CC4)cc32)sc1C(N)=O)c1ccccc1Cl [GSK579289A]"
  Assayed system: "CSNK1A1"
  Result: "77%"
- Compound: "CC1=C(C(=O)Nc2ccc3[nH]ncc3c2)C(c2ccc(Cl)c(Cl)c2)CC(=O)N1 (centres unmarked) [GSK299115A]"
  Assayed system: "CSNK1A1"
  Result: "84%"
- Compound: "COc1cc2ncnc(Nc3ccc4c(cnn4Cc4ccccc4)c3)c2cc1OC.Cl [GW282449A]"
  Assayed system: "CSNK1A1"
  Result: "100%"
- Compound: "Cl.c1ccc(Cc2nc3ccc(Nc4ncnc5ccccc45)cc3[nH]2)cc1 [GR269666A]"
  Assayed system: "CSNK1A1"
  Result: "100%"
- Compound: "COc1cc(C=NNc2ncnc3c2cnn3-c2ccccc2)ccc1O [GW513184X]"
  Assayed system: "CSNK1A1"
  Result: "77%"
- Compound: "NS(=O)(=O)c1ccc(N/N=C2\\C(=O)Nc3ccc(Cl)cc32)cc1 [GW280670X]"
  Assayed system: "CSNK1A1"
  Result: "100%"
- Compound: "CC(C)COC(=O)c1ccc2c(c1)/C(=C/Nc1ccc(S(N)(=O)=O)cc1)C(=O)N2 [GW416981X]"
  Assayed system: "CSNK1A1"
  Result: "99%"
- Compound: "CC1=C(C(=O)Nc2ccc3[nH]ncc3c2)C(c2ccc3ccccc3c2)CC(=O)N1 (centres unmarked) [GSK270822A]"
  Assayed system: "CSNK1A1"
  Result: "91%"
- Compound: "COc1cc(N2CCN(C(C)C)CC2)ccc1Nc1nc(Nc2ccc(F)cc2C(=O)NC[C@@H](O)CO)c2cc[nH]c2n1 [GSK1392956A]"
  Assayed system: "CSNK1A1"
  Result: "35%"
- Compound: "COc1ccc2[nH]c3c4[nH]c5ccc(OC)cc5c4c4c(c3c2c1)C(=O)NC4=O [GW296115X]"
  Assayed system: "CSNK1A1"
  Result: "62%"
- Compound: "COc1ccc2c(-c3ccnc(Nc4cccc(OC(F)(F)F)c4)n3)cnn2n1 [GW810372X]"
  Assayed system: "CSNK1A1"
  Result: "92%"
- Compound: "O=C1Nc2ccc(C(=O)c3ccco3)cc2C1=Cc1cc(Cl)c(O)c(Cl)c1 [GW406108X]"
  Assayed system: "CSNK1A1"
  Result: "93%"
- Compound: "CN1CCN(C(=O)c2ccc(NC(=O)Nc3ccc(N(C)c4ccnc(Nc5ccc(CS(C)(=O)=O)cc5)n4)cc3)cc2)CC1.Cl [GW830263A]"
  Assayed system: "CSNK1A1"
  Result: "85%"
- Compound: "COc1ccccc1-c1cc(/C=C2\\C(=O)Nc3ncc(Br)cc32)cc(Br)c1O [GW442130X]"
  Assayed system: "CSNK1A1"
  Result: "100%"

###

Overview of reported Percent Control across a group of compounds:
system: CAMK1G; conditions: Compound Concentration (nM):1000
Parameter: Percent Control (%)

- Compound: "Cl.c1ccc(Cc2nc3ccc(Nc4ncnc5ccccc45)cc3[nH]2)cc1 [GR269666A]"
  Unit abbreviation: "%"
  Result number: 100
- Compound: "CCS(=O)(=O)c1ccc(OC)c(Nc2ncc(-c3cccc(OC)c3)o2)c1 [GW580509X]"
  Unit abbreviation: "%"
  Result number: 100
- Compound: "CCc1ccc(Oc2nccc(-c3c(-c4ccc(F)cc4)ncn3C3CCNCC3)n2)cc1"
  Unit abbreviation: "%"
  Result number: 100
- Compound: "COc1cccc(-c2c[nH]c3c(N/N=C/c4ccncc4)ncnc23)c1 [GW814408X]"
  Unit abbreviation: "%"
  Result number: 97
- Compound: "NS(=O)(=O)c1ccc(Nc2ncc(-c3ccccc3)o2)cc1 [GW572399X]"
  Unit abbreviation: "%"
  Result number: 100
- Compound: "CC1=C(C(=O)Nc2ccc3[nH]ncc3c2)C(c2ccc3ccccc3c2)CC(=O)N1 (stereo not drawn) [GSK270822A]"
  Unit abbreviation: "%"
  Result number: 91
- Compound: "O=C1Nc2ccc(C(=O)c3ccco3)cc2C1=Cc1cc(Cl)c(O)c(Cl)c1 [GW406108X]"
  Unit abbreviation: "%"
  Result number: 77
- Compound: "CCS(=O)(=O)c1ccc(OC)c(Nc2ncc(-c3cccc(F)c3)o2)c1 [GW621970X]"
  Unit abbreviation: "%"
  Result number: 100
- Compound: "COc1ccccc1-c1cc(/C=C2\\C(=O)Nc3ncc(Br)cc32)cc(Br)c1O [GW442130X]"
  Unit abbreviation: "%"
  Result number: 100

###

tested on: PCTK3; construct: gene CDK18; conditions: Compound Concentration (nM):1000

- Molecule: "COc1ccc(COc2ccc(Cc3cnc(N)nc3N)cc2OC)cc1 [GW632580X]"
  Percent Control / %: 73
- Molecule: "CC1=C(C(=O)Nc2ccc3[nH]ncc3c2)C(c2ccc(Cl)c(Cl)c2)CC(=O)N1 (centres unmarked) [GSK299115A]"
  Percent Control / %: 93
- Molecule: "NS(=O)(=O)c1ccc(N/N=C2\\C(=O)Nc3ccc(-c4cnco4)cc32)cc1"
  Percent Control / %: 100
- Molecule: "COc1cccc(-n2ncc3c(N/N=C/c4ccncc4)ncnc32)c1 [GW784752X]"
  Percent Control / %: 100
- Molecule: "CN1CCN(C(=O)c2ccc(NC(=O)Nc3ccc(N(C)c4ccnc(Nc5ccc(CS(C)(=O)=O)cc5)n4)cc3)cc2)CC1.Cl [GW830263A]"
  Percent Control / %: 96
- Molecule: "COc1cc2ncn(-c3cc(O[C@H](C)c4ccccc4Cl)c(C(N)=O)s3)c2cc1OC [GSK237701A]"
  Percent Control / %: 100
- Molecule: "CN(C)c1cc2c(Nc3ccc4c(cnn4Cc4ccccc4)c3)ncnc2cn1 [GW282974X]"
  Percent Control / %: 100
- Molecule: "NS(=O)(=O)c1ccc(N/N=C2\\C(=O)Nc3ccc(C(=O)NCCc4c[nH]cn4)cc32)cc1 [GW300660X]"
  Percent Control / %: 100

###

A collection of compounds and their measured Percent Control
test system: RSK2(Kin.Dom.2-C-terminal); construct: gene RPS6KA3; settings: Compound Concentration (nM):1000

- Compound: "C[C@@H](Oc1cc(-n2cnc3ccc(OC4CCN(C)CC4)cc32)sc1C(N)=O)c1ccccc1Cl [GSK579289A]"
  Assayed system: "RSK2(Kin.Dom.2-C-terminal)"
  Percent Control: "98%"
- Compound: "COC(=O)Nc1nc2ccc(Oc3ccc(NC(=O)Nc4cc(C(F)(F)F)ccc4F)cc3)cc2s1.Cl [GW693917A]"
  Assayed system: "RSK2(Kin.Dom.2-C-terminal)"
  Percent Control: "86%"
- Compound: "CC1=C(C(=O)Nc2ccc3[nH]ncc3c2)C(c2ccc3ccccc3c2)CC(=O)N1 (centres unmarked) [GSK270822A]"
  Assayed system: "RSK2(Kin.Dom.2-C-terminal)"
  Percent Control: "75%"
- Compound: "O=C(Nc1n[nH]c2nc(-c3ccc(O)cc3)c(Br)cc12)C1CC1"
  Assayed system: "RSK2(Kin.Dom.2-C-terminal)"
  Percent Control: "97%"
- Compound: "O=C1Nc2ccc(C(=O)c3ccco3)cc2C1=Cc1cc(Cl)c(O)c(Cl)c1 [GW406108X]"
  Assayed system: "RSK2(Kin.Dom.2-C-terminal)"
  Percent Control: "85%"
- Compound: "COc1cc(C)c(N(C)C(=O)CN(C)C)cc1Nc1nc(Nc2cccc(F)c2C(N)=O)c2cc[nH]c2n1"
  Assayed system: "RSK2(Kin.Dom.2-C-terminal)"
  Percent Control: "100%"
- Compound: "CN(C)CCNC(=O)Nc1ccc(N(C)c2ccnc(Nc3ccc(CS(C)(=O)=O)cc3)n2)cc1.Cl [GW830900A]"
  Assayed system: "RSK2(Kin.Dom.2-C-terminal)"
  Percent Control: "82%"
- Compound: "Cl.O=C(O[C@H]1CN[C@H](C#Cc2cc3ncnc(Nc4ccc5c(cnn5Cc5ccccc5)c4)c3s2)C1)N1CCOCC1 [GSK200398A]"
  Assayed system: "RSK2(Kin.Dom.2-C-terminal)"
  Percent Control: "93%"
